procedure-summary: Oral bioavailability in Sprague-Dawley rat at 10 mg/kg measured upto 24 hrs by LC-MS/MS analysis
Assay type: ADME, organism-based
test-settings: in vivo
measure-name: bioavailability (%)

(1) Cc1ccc(N2CC(CN[C@H](C)c3cccc4ccccc34)Oc3ccccc32)cc1C(=O)O.Cl (some centres not stated)
(2) C[C@@H](NCCCc1cccc(C(F)(F)F)c1)c1cccc2ccccc12 [CINACALCET]
Q: Record comparison, field bioavailability: mark the lower of 1 and 2 . Write the label of whichever entry you select.
A: 2
(2: 19%, 1: 79%)

---

procedure-summary: Kinetic solubility of compound in SGF upto 500 uM measured after 16 hrs under shaking condition by UV-visible method
Format: physicochemical
test-settings: read-out: Kinetic_solubility
measure-name: solubility kinetic at 16 h, 500 µM

Q: Could you tell me which solubility kinetic at 16 h, 500 µM is on file for "Cc1ccc([C@@H]2C[C@H](CN[C@H](C)c3cccc4ccccc34)Oc3ccccc32)cc1C(=O)O.Cl" ?
A: > 200 µM

---

procedure-summary: Kinetic solubility of compound upto 500 uM at pH 2 measured after 16 hrs under shaking condition by UV-visible method
Assay type: physicochemical
test-settings: buffer, read-out: Kinetic_solubility
measure-name: solubility kinetic at 16 h, 500 µM

Q: Give its solubility kinetic at 16 h, 500 µM value. Item: "Cc1ccc([C@@H]2C[C@H](CN[C@H](C)c3cccc4ccccc34)Oc3ccccc32)cc1C(=O)O.Cl"
A: > 300 µM

---

target: Extracellular calcium-sensing receptor (Homo sapiens)
Sequence (P41180 whole entry): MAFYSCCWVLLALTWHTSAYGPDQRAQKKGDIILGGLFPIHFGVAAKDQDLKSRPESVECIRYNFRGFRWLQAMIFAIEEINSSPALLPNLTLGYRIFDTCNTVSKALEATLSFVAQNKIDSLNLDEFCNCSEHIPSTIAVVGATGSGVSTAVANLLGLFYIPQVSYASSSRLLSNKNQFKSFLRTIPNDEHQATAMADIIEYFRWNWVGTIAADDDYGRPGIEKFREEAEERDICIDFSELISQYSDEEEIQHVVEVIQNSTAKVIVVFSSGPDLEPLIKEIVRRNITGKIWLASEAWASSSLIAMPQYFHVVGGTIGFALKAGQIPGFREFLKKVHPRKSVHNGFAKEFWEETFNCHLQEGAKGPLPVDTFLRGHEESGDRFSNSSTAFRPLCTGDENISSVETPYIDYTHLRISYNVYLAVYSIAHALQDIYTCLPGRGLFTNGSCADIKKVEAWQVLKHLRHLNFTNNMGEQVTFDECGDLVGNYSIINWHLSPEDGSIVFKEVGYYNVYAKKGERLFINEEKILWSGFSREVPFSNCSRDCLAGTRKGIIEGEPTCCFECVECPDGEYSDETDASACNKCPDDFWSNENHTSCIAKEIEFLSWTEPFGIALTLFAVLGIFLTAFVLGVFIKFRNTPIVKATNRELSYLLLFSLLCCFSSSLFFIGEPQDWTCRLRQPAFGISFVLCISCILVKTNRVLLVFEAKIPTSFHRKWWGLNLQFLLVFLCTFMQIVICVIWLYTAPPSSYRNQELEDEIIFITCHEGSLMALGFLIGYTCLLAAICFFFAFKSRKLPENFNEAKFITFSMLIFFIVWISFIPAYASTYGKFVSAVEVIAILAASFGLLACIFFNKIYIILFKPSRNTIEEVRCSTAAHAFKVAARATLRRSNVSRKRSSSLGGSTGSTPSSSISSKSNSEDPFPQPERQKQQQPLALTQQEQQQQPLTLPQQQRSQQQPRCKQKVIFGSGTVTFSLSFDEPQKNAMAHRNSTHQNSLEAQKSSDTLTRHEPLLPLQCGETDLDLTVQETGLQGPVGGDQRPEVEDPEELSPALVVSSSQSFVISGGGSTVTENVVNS
procedure-summary: Agonist activity at human CaSR expresssed in HEK293 cells in presence of glucose by Fluo4NW dye based FLIPR assay
Format: functional, cell-based
test-settings: read-out: EC50
measure-name: EC50 (nM)

Answered cases to consult:
compound	EC50 [nM]
C[C@@H](NCC1CN(c2ccc(C(=O)O)cc2)c2ccccc2O1)c1cccc2ccccc12 (some centres not stated)	64.9
Cc1ccc([C@@H]2C[C@H](CN[C@H](C)c3cccc4ccccc34)Oc3ccccc32)cc1C(=O)O.Cl	6.4
C[C@@H](NCC1CN(C(=O)c2ccccc2)c2ccccc2O1)c1cccc2ccccc12 (mixture of isomers; form 1)	21
Cc1ccc([C@@H]2C[C@@H](CN[C@H](C)c3cccc4ccccc34)Oc3ccccc32)cc1C(=O)O	33.6
C[C@@H](NCC1CN(c2cccc(C(=O)O)c2)c2ccccc2O1)c1cccc2ccccc12 (mixture of isomers; form 1)	32.8

(P) Cc1ccc(N2CC(CN[C@H](C)c3cccc4ccccc34)Oc3ccccc32)cc1C(=O)O (mixture of isomers)
(Q) C[C@@H](NCCCc1cccc(C(F)(F)F)c1)c1cccc2ccccc12
(R) Cc1cc(C(=O)O)cc(N2CC(CN[C@H](C)c3cccc4ccccc34)Oc3ccccc32)c1 (mixture of isomers; form 2)
Q: Arrange the 3 compounds from largest to smallest EC50. List the labels, following the order given in the request.
A: R, P, Q
(R: 169 nM, P: 71.4 nM, Q: 4 nM)

---

procedure-summary: Volume of distribution at steady state in Sprague-Dawley rat at 1 mg/kg, iv measured upto 24 hrs by LC-MS/MS analysis
Format: ADME, organism-based
test-settings: in vivo, read-out: Vdss
measure-name: Vd (L/kg)

compound	unit	val
Cc1ccc([C@@H]2C[C@H](CN[C@H](C)c3cccc4ccccc34)Oc3ccccc32)cc1C(=O)O.Cl	L/kg	1

(I) Cc1ccc(N2CC(CN[C@H](C)c3cccc4ccccc34)Oc3ccccc32)cc1C(=O)O.Cl (stereo partly drawn)
(II) C[C@@H](NCCCc1cccc(C(F)(F)F)c1)c1cccc2ccccc12 [CINACALCET]
Q: Select one: I or II . Criterion: greater recorded Vd. Respond with the label that goes with your answer.
A: II
(II: 23 L/kg, I: 1 L/kg)

---

procedure-summary: Cmax in Sprague-Dawley rat at 10 mg/kg, po measured upto 24 hrs by LC-MS/MS analysis
Format: ADME, organism-based
Set-up: time < 24 hrs, dose 10 mg/kg, route po
test-settings: in vivo
measure-name: Cmax (µM)

(A) Cc1ccc(N2CC(CN[C@H](C)c3cccc4ccccc34)Oc3ccccc32)cc1C(=O)O.Cl (some centres not stated)
(B) C[C@@H](NCCCc1cccc(C(F)(F)F)c1)c1cccc2ccccc12 [CINACALCET]
Q: // task: argmin of Cmax over [ A , B ] Select an item and report its label.
A: B

---

procedure-summary: Drug excretion in rat assessed as drug recovery in feces at 1 mg/kg, iv
Assay type: ADME, organism-based
test-settings: faeces, read-out: Drug recovery
measure-name: dose excreted (%)
Answer in %, number only, no unit symbol.

Q: dose excreted for "Cc1ccc([C@@H]2C[C@H](CN[C@H](C)c3cccc4ccccc34)Oc3ccccc32)cc1C(=O)O.Cl" ?
A: 10

---

procedure-summary: Tmax in Sprague-Dawley rat at 10 mg/kg, po administered as suspension measured upto 24 hrs by LC-MS/MS analysis
Format: ADME, organism-based
test-settings: in vivo
measure-name: Tmax (h)
Give a bare numeral; the unit h is implied.

Q: Give its Tmax value. Item: "Cc1ccc([C@@H]2C[C@H](CN[C@H](C)c3cccc4ccccc34)Oc3ccccc32)cc1C(=O)O.Cl"
A: 1

---

procedure-summary: Cmax in Sprague-Dawley rat at 10 mg/kg, po measured upto 24 hrs by LC/MS-MS analysis
Format: ADME, organism-based
Parameters: dose 10 mg/kg, time < 24 hrs, route po
test-settings: in vivo
measure-name: Cmax (µM)
Your answer is read as µM, so omit the unit and give the number.

Q: Give the measured Cmax of "Cc1ccc([C@@H]2C[C@H](CN[C@H](C)c3cccc4ccccc34)Oc3ccccc32)cc1C(=O)O.Cl" .
A: 14

---

procedure-summary: Half life in BALB/c mouse at 1 mg/kg, iv measured upto 24 hrs by LC/MS-MS analysis
Type: ADME, organism-based
test-settings: in vivo
measure-name: half-life (h)
Record the value in h, omitting the unit from your answer.

Q: For "Cc1ccc([C@@H]2C[C@H](CN[C@H](C)c3cccc4ccccc34)Oc3ccccc32)cc1C(=O)O.Cl" , what is its reported half-life?
A: 3

---

procedure-summary: Drug excretion in BALB/c mouse assessed as drug recovery in feces at 1 mg/kg, iv
Format: ADME, organism-based
test-settings: faeces, read-out: Drug recovery
measure-name: dose excreted (%)
Answer format: numeric, % implied, no suffix.

Q: Please look up its dose excreted: "Cc1ccc([C@@H]2C[C@H](CN[C@H](C)c3cccc4ccccc34)Oc3ccccc32)cc1C(=O)O.Cl"
A: 27

---

procedure-summary: Kinetic solubility of compound in 0.1N HCL upto 500 uM measured after 16 hrs under shaking condition by UV-visible method
Format: physicochemical
test-settings: read-out: Kinetic_solubility
measure-name: solubility kinetic at 16 h, 500 µM

Q: Sample "Cc1ccc([C@@H]2C[C@H](CN[C@H](C)c3cccc4ccccc34)Oc3ccccc32)cc1C(=O)O.Cl" — what was its solubility kinetic at 16 h, 500 µM?
A: > 200 µM
